- target or test system: RSV protein F of strain Long (RSV Long (ATCC number VR-26)) (UniProt P12568)
- Sequence (P12568 26-574): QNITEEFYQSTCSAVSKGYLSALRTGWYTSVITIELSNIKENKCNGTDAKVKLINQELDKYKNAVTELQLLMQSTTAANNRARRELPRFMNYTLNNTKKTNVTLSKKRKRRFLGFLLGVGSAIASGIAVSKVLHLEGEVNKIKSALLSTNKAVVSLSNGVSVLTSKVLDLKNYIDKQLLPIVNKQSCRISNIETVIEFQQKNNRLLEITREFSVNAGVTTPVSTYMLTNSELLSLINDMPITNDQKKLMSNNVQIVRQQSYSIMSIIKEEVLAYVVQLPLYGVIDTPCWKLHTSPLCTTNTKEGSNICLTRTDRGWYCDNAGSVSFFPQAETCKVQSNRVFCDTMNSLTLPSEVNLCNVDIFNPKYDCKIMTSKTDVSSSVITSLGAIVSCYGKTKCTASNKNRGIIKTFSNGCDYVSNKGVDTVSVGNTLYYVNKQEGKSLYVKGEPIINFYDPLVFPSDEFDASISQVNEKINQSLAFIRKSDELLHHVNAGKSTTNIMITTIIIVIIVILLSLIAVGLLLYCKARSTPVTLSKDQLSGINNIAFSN
- protocol text: cell-based or functional assay
// values below are reported PRNT EC50 with complement, RSV Long

antibody clone 827 (antibody, human IgG1, kappa, V domains shown) VH: QVQLVQSGAEVKKPGASVKVSCRVSGHTFTALSKHWMRQGPGGGLEWMGFFDPEDGDTGYAQKFQGRVTMTEDTATGTAYMELSSLTSDDTAVYYCATVAAAGNFDNWGQGTLVTVSS VL: DIQMTQSPSSLAASVGDRVTITCRASQFISSYLHWYQQRPGKAPKLLMYAASTLQSGVPSRFSGSGSGTDFTLTISSLQPEDFATYYCQQSYTNPYTFGQGTKLEIKR
0.16 µg/mL
antibody clone 880 (antibody, human IgG1, kappa, V domains shown) VH: QITLKESGPTLVRPTQTLTLTCTFSGFSLSTSKLGVGWIRQPPGKALEWLALVDWDDDRRYRPSLKSRLTVTKDTSKNQVVLTMTNMDPVDTATYYCAHSAYYTSSGYYLQYFHHWGPGTLVTVSS VL: DIQMTQSPSSLAASVGDRVTITCRASQTIASYVNWYQQKPGKAPNLLIYAASSLQSGVPSRFSGSGSGTDFTLTISSLQPEDFASYFCQQSYSFPYTFGQGTKLDIKR
0.38 µg/mL

// next entry
State its PRNT EC50 with complement, RSV Long: antibody clone 831 (antibody, human IgG1, kappa, V domains shown) VH: QVQLVQSGAEVKKPGASVKVSCKASANIFTYAMHWVRQAPGQRLEWMGWINVGNGQTKYSQRFQGRVTITRDTSATTAYMELSTLRSEDTAVYYCARRASQYGEVYGNYFDYWGQGTLVTVSS VL: DIQMTQSPSTLSASVGDRLTITCRASQNIYNWLAWYQQKPGKAPKLLIYDASTLESGVPSRFSGSGSGTEFTLTISSLQPDDFATYYCQQYNSLSPTFGQGTKVEIKR
0.08 µg/mL
